Below: a set of entries, each annotated with reported inhibition.
# assaySystem: Acetylcholinesterase (Homo sapiens)
# assayInfo: Inhibition of AChE (unknown origin) using acetyl thiocholine iodide as substrate at 0.25 mM after 30 mins by Ellman's method

{"columns": ["chemicalSmiles", "assaySystem", "inhibition, %"],
 "data": [
  ["COc1ccc(NC(=S)NNC=C2C(=O)NC(=S)NC2=O)cc1", "Acetylcholinesterase (Homo sapiens)", 59.1],
  ["O=C1NC(=S)NC(=O)C1=CNNC(=S)Nc1ccccc1", "Acetylcholinesterase (Homo sapiens)", 73.2],
  ["N#Cc1ccc(NC(=S)NNC=C2C(=O)NC(=O)NC2=O)cc1", "Acetylcholinesterase (Homo sapiens)", 11.4],
  ["O=C1NC(=S)NC(=O)C1=CNNC(=S)Nc1ccc(F)cc1", "Acetylcholinesterase (Homo sapiens)", 86.9],
  ["CNC(=O)Oc1ccc2c(c1)[C@]1(C)CCN(C)[C@@H]1N2C", "Acetylcholinesterase (Homo sapiens)", 92.5],
  ["CC(=O)NC=C1C(=O)NC(=O)NC1=O", "Acetylcholinesterase (Homo sapiens)", 77.7],
  ["O=C1NC(=S)NC(=O)C1=CNNC(=S)Nc1ccc(C(F)(F)F)cc1", "Acetylcholinesterase (Homo sapiens)", 75.6],
  ["NC(=S)NNC=C1C(=O)NC(=O)NC1=O", "Acetylcholinesterase (Homo sapiens)", 65.8],
  ["O=C1NC(=S)NC(=O)C1=CNNC(=S)Nc1ccc(Br)cc1", "Acetylcholinesterase (Homo sapiens)", 80.4],
  ["O=C1NC(=S)NC(=O)C1=CNNC(=S)Nc1ccc(Cl)cc1", "Acetylcholinesterase (Homo sapiens)", 62]
]}

====

Quick list: inhibition per entry.
# assaySystem: Cholinesterase (Homo sapiens, UniProt P06276)
# Sequence (P06276 whole entry): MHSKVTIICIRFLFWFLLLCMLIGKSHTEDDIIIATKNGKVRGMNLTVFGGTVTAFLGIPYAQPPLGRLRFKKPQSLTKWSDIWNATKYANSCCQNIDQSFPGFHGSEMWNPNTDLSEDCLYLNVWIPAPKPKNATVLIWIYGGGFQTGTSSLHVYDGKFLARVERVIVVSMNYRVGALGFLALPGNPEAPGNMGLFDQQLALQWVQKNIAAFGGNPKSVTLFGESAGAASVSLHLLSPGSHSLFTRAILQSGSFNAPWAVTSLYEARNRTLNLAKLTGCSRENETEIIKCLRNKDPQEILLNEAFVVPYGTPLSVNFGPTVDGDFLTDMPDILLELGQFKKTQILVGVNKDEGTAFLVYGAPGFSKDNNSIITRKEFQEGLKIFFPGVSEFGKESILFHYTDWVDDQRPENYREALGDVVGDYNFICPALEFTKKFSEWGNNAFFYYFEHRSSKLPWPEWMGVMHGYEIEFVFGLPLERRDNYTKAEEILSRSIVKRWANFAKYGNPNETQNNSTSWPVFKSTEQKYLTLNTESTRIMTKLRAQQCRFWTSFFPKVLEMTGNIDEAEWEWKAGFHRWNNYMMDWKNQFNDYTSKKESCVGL
# assayInfo: Inhibition of BChE (unknown origin) using butyryl thiocholine iodide as substrate at 0.25 mM after 30 mins by Ellman's method

{"columns": ["chemicalSmiles", "inhibition [%]"],
 "data": [
  ["O=C1NC(=S)NC(=O)C1=CNNC(=S)Nc1ccc(F)cc1", 88.8],
  ["NC(=S)NNC=C1C(=O)NC(=O)NC1=O", 87.5],
  ["CC(=O)NC=C1C(=O)NC(=O)NC1=O", 88.3],
  ["O=C1NC(=S)NC(=O)C1=CNNC(=S)Nc1ccccc1", 83.2],
  ["O=C1NC(=S)NC(=O)C1=CNNC(=S)Nc1ccc(Cl)cc1", 81.6],
  ["O=C1NC(=S)NC(=O)C1=CNNC(=S)Nc1ccc(Br)cc1", 84.5]
]}

====

# assaySystem: UniProt:P06276
# assayInfo: Inhibition of BChE (unknown origin) using butyryl thiocholine iodide as substrate after 30 mins by Ellman's method
metric: IC50 (µmol)

{"columns": ["chemicalSmiles", "metric", "displayUnit", "recordedMeasurement"],
 "data": [
  ["O=C1NC(=S)NC(=O)C1=CNNC(=S)Nc1ccc(Cl)cc1", "IC50", "µmol", 75.41],
  ["N#Cc1ccc(NC(=S)NNC=C2C(=O)NC(=O)NC2=O)cc1", "IC50", "µmol", 231.61],
  ["O=C(NNC=C1C(=O)NC(=S)NC1=O)Nc1ccccc1", "IC50", "µmol", 3.31],
  ["O=C1NC(=S)NC(=O)C1=CNNC(=S)Nc1ccc(Br)cc1", "IC50", "µmol", 68.41],
  ["O=C1NC(=S)NC(=O)C1=CNNC(=S)Nc1ccc(F)cc1", "IC50", "µmol", 57.81],
  ["O=C1NC(=O)C(=CNNC(=O)Nc2ccccc2)C(=O)N1", "IC50", "µmol", 38.51],
  ["CC(=O)NC=C1C(=O)NC(=O)NC1=O", "IC50", "µmol", 116.61]
]}

====

# assaySystem: Acetylcholinesterase (Homo sapiens, UniProt P22303)
# Sequence (P22303 whole entry): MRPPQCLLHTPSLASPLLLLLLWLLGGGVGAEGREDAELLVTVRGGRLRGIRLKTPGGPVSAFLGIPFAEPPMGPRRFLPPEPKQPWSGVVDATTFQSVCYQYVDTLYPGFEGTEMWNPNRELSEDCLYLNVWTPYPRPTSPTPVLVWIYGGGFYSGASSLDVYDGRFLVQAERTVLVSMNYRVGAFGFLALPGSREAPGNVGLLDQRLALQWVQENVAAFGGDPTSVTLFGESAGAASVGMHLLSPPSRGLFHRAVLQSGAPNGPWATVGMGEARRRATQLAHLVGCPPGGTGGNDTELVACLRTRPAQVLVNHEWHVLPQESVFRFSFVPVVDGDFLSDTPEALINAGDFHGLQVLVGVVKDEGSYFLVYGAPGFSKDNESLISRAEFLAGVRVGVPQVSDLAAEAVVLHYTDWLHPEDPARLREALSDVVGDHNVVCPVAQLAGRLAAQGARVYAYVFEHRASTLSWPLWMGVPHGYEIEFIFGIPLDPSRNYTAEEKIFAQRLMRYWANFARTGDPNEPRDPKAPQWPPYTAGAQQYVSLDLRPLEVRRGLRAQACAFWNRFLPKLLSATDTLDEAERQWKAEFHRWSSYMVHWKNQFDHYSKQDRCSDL
# assayInfo: Inhibition of AChE (unknown origin) using acetyl thiocholine iodide as substrate after 30 mins by Ellman's method

{"columns": ["chemicalSmiles", "displayUnit", "IC50"],
 "data": [
  ["O=C1NC(=S)NC(=O)C1=CNNC(=S)Nc1ccc(C(F)(F)F)cc1", "µmol", 99.41],
  ["O=C1NC(=S)NC(=O)C1=CNNC(=S)Nc1ccc(Br)cc1", "µmol", 79.21],
  ["O=C(NNC=C1C(=O)NC(=S)NC1=O)Nc1ccccc1", "µmol", 74.21],
  ["COc1ccc(NC(=S)NNC=C2C(=O)NC(=S)NC2=O)cc1", "µmol", 206.31],
  ["O=C1NC(=O)C(=CNNC(=S)Nc2cccc(C(F)(F)F)c2)C(=O)N1", "µmol", 40.78],
  ["O=C1NC(=S)NC(=O)C1=CNNC(=S)Nc1ccc(Cl)cc1", "µmol", 121.11],
  ["O=C1NC(=S)NC(=O)C1=CNNC(=S)Nc1ccc(F)cc1", "µmol", 78.41],
  ["NC(=S)NNC=C1C(=O)NC(=O)NC1=O", "µmol", 119.11],
  ["CC(=O)NC=C1C(=O)NC(=O)NC1=O", "µmol", 90.91],
  ["O=C1NC(=S)NC(=O)C1=CNNC(=S)Nc1ccccc1", "µmol", 115.11]
]}

====

# assaySystem: Cholinesterase (Homo sapiens, UniProt P06276)
# assayInfo: Inhibition of BChE (unknown origin) using butyryl thiocholine iodide as substrate at 0.25 mM after 30 mins by Ellman's method
Readings of inhibition for the listed compounds
metric: inhibition (%)

{"columns": ["chemicalSmiles", "assaySystem", "recordedMeasurement"],
 "data": [
  ["N#Cc1ccc(NC(=S)NNC=C2C(=O)NC(=O)NC2=O)cc1", "Cholinesterase (Homo sapiens, UniProt P06276)", 66.8],
  ["O=C1NC(=S)NC(=O)C1=CNNC(=S)Nc1ccc(C(F)(F)F)cc1", "Cholinesterase (Homo sapiens, UniProt P06276)", 78.2],
  ["COc1ccc(NC(=S)NNC=C2C(=O)NC(=S)NC2=O)cc1", "Cholinesterase (Homo sapiens, UniProt P06276)", 85.4],
  ["CNC(=O)Oc1ccc2c(c1)[C@]1(C)CCN(C)[C@@H]1N2C", "Cholinesterase (Homo sapiens, UniProt P06276)", 92.5]
]}

====

# assaySystem: Cholinesterase (Homo sapiens, UniProt P06276)
# assayInfo: Inhibition of BChE (unknown origin) using butyryl thiocholine iodide as substrate after 30 mins by Ellman's method
Cut-off 60 µmol on IC50: below means Fulfilled, at or above means Not fulfilled.

{"columns": ["chemicalSmiles", "cat"],
 "data": [
  ["O=C1NC(=O)C(=CNNC(=S)Nc2cccc(C(F)(F)F)c2)C(=O)N1", "Not fulfilled"],
  ["O=C1NC(=S)NC(=O)C1=CNNC(=S)Nc1ccc(C(F)(F)F)cc1", "Fulfilled"],
  ["Cc1cccc(Cl)c1NC(=S)NNC=C1C(=O)NC(=O)NC1=O", "Fulfilled"],
  ["COc1ccc(NC(=S)NNC=C2C(=O)NC(=S)NC2=O)cc1", "Fulfilled"],
  ["O=C1NC(=S)NC(=O)C1=CNNC(=S)Nc1ccccc1", "Fulfilled"],
  ["NC(=S)NNC=C1C(=O)NC(=O)NC1=O", "Fulfilled"]
]}

Source: ChEMBL document CHEMBL2424571
